# target_or_system: T1, cynomolgus monkey IL-2Rα/CD25 subunit (cynomolgus monkey, UniProt H6WS54 22-213)
# T1 construct: also called Cyno IL-2R subunit
# T1 sequence: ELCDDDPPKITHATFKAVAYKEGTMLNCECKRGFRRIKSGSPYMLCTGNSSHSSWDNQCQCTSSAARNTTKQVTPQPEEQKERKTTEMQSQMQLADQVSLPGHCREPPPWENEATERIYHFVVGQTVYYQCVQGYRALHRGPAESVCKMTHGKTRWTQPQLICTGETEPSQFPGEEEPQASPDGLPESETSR
# protocol_details: ELISA, bivalent VHH-hFc
pEC50: −log10 of the molar value.
Measured pEC50 accompanies every entry in the list below.

- binder: "1-MP01H01 VHH-hFc, monospecific bivalent (Fc fusion, IgG1 Fc LALA-PG; not shown: human IgG1 CH2 and CH3 domains (Fc)) EVQLVESGGGLVQAGGSLRLSCAASGRTFRTHNMGWFRRAPGKEREFVAAISWNVDNTLYADSVKGRFTISRDNGRNMVYLQMNSLKPEDTAVYYCAADNIPLSSDVAATATEYDYWGQGTQVTVSS"
  pEC50: 10.21
- binder: "12-MP05B12 VHH-hFc, monospecific bivalent (Fc fusion, IgG1 Fc LALA-PG; not shown: human IgG1 CH2 and CH3 domains (Fc)) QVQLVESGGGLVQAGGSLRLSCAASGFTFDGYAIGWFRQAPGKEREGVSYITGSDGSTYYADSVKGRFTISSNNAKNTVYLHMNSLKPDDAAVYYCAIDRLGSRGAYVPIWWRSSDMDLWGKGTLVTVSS"
  pEC50: 10.08
- binder: "2-MP01A02 VHH-hFc, monospecific bivalent (Fc fusion, IgG1 Fc LALA-PG; also called anti-IL-2Rα Ab 2; not shown: human IgG1 CH2 and CH3 domains (Fc)) QVQLVESGGGLVQPGGSLRLSCATSGFTFRNNFMSWVRQAPGKGLEWVSTISYGGESTTYAESVKGRFTISRDNAKNTLYLQMNNLKPEDTAVYYCAKATSYDSIRSGSRGQGTQVTVSS"
  pEC50: 10.37
- binder: "7-MP01G08 VHH-hFc, monospecific bivalent (Fc fusion, IgG1 Fc LALA-PG; also called 07-MP01G08; not shown: human IgG1 CH2 and CH3 domains (Fc)) EVQLVESGGGLVQAGGSLRLSCAASGRAFSMYNMGWFRQAPGKEREFVAATGWSGANTPYADSVKGRFTISRDNTQNTVYLQMNSLKPEDTATYYCAADSIRLRSDVTRIPLEYDYWGQGTQVTVSS"
  pEC50: 10.17
- binder: "9-MP05G01 VHH-hFc, monospecific bivalent (Fc fusion, IgG1 Fc LALA-PG; not shown: human IgG1 CH2 and CH3 domains (Fc)) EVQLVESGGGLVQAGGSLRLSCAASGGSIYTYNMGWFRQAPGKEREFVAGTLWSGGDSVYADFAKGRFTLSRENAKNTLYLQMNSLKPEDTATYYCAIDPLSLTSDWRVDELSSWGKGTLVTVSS"
  pEC50: 10.21
- binder: "10-MP05F03 VHH-hFc, monospecific bivalent (Fc fusion, IgG1 Fc LALA-PG; also called anti-IL-2Rα Ab 10; anti-IL-2Rα VHH 10; not shown: human IgG1 CH2 and CH3 domains (Fc)) QVQLVESGGGLVQAGGSLRLSCAASGIPFDNYAMGWFRQAPGKEREFVAARDLEGIITRYGDSVKGRFTISRGNAKNTVFLQMNSLKPEDTAVYYCAARDGGVVAGSRSSAQYNYWGQGTQVTVSS"
  pEC50: 10.22
- binder: "8-MP01C12 VHH-hFc, monospecific bivalent (Fc fusion, IgG1 Fc LALA-PG; also called anti-IL-2Rα Ab 8; anti-IL-2Rα VHH 8; not shown: human IgG1 CH2 and CH3 domains (Fc)) QVQLVESGGGLVQPGGSLRLSCATSGFTFSNNFMSWVRQAPGKGLEFVSTISYGGESTTYAEAVKGRFTISRDNAKNTLYLQMNNLKPEDTAIYYCAKATSYTSIRGAPRGQGTQVTVSS"
  pEC50: 10.27
- binder: "4-MP01F04 VHH-hFc, monospecific bivalent (Fc fusion, IgG1 Fc LALA-PG; not shown: human IgG1 CH2 and CH3 domains (Fc)) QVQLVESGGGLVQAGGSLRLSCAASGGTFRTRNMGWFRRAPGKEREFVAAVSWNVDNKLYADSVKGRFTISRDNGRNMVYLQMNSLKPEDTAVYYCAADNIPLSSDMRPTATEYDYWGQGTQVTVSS"
  pEC50: 10.25
- binder: "11-MP05H04 VHH-hFc, monospecific bivalent (Fc fusion, IgG1 Fc LALA-PG; not shown: human IgG1 CH2 and CH3 domains (Fc)) QLQLVESGGGLVQAGGSLRLSCAASGLTFEGYAIGWFRQAPGKEREGVSYITGSDGTTYYINSVKGRFTISSDNAKSTVYLQMNTLKPEDTAVYYCAVDRLGSQGRYASAWWRSGDMDLWGKGTQVTVSS"
  pEC50: 9.96
- binder: "13-MP05E12 VHH-hFc, monospecific bivalent (Fc fusion, IgG1 Fc LALA-PG; not shown: human IgG1 CH2 and CH3 domains (Fc)) QVQLQESGGGLVQAGDSLRLSCAASGFNFGWHAMGWFRQAPGKEREFVATITWTGRDTYYADSVRGRFTISKDNAKDTLFLQMNSLRPDDTGVYYCAKARERATWAYSEDDCDYWGQGTQVTVSS"
  pEC50: 10.29
- binder: "6-MP01G05 VHH-hFc, monospecific bivalent (Fc fusion, IgG1 Fc LALA-PG; not shown: human IgG1 CH2 and CH3 domains (Fc)) QVQLQESGGGLVQAGGSLRLSCAASGRTFSSYAMGWFRQAPGKEREFVAVISWNVDNTEYTDSVKGRFTISRDNDKNMVYLQMNSLKPEDTAVYYCAADSIPLSSDMSPTATEYGYWGQGTQVTVSS"
  pEC50: 10.30
- binder: "3-MP01E03 VHH-hFc, monospecific bivalent (Fc fusion, IgG1 Fc LALA-PG; not shown: human IgG1 CH2 and CH3 domains (Fc)) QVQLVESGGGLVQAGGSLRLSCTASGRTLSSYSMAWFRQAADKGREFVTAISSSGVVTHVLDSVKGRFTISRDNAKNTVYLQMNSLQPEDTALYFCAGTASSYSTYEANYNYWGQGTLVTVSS"
  pEC50: 9.97
- binder: "5-MP01F05 VHH-hFc, monospecific bivalent (Fc fusion, IgG1 Fc LALA-PG; not shown: human IgG1 CH2 and CH3 domains (Fc)) EVQLVESGGGLVQAGGSLRLSCAASIRAFTTWSMAWFRQAPGKEREYVARINVSGSVTYYADFVKGRFTISRDNAKKTMYLEMNNLKPEDTALYYCAADRTGVGTNDYNYWGQGTQVTVSS"
  pEC50: 10.02
